protocol: Tmax in CD1 mouse liver at 3 mg/kg, sc by LC-MS/MS analysis
Format: ADME, organism-based
metric-name: Tmax (h)
Value expressed in h; do not type the unit.

Would you mind telling me what Tmax value was observed for CC(C)CS(=O)(=O)n1ccc2c(-c3ccc(C(F)(F)F)cc3)cc(N3CCN(C)CC3)nc21 ?
1

====

protocol: AUClast in CD1 mouse plasma at 3 mg/kg, po as single dose after 0.083 to 6 hrs by LC-MS/MS analysis
Type: ADME, organism-based
Design: dose 3 mg/kg, time upper 6 hr, time lower 0.083 hr, route oral
metric-name: AUC(0-t)

Would you mind telling me what AUC(0-t) value was observed for CC(C)CS(=O)(=O)n1ccc2c(-c3ccc(C(F)(F)F)cc3)cc(N3CCN(C)CC3)nc21 ?
13 ng·h/mL

====

Ki tested on 5-hydroxytryptamine receptor 6 (Homo sapiens): recorded values
Just so you know, I need the unit written after the number.

Examples with their reported Ki follow.
smiles-input	target-or-system	Ki
CC(C)CS(=O)(=O)n1ccc2c(-c3ccc(C#N)cc3)cc(N3CCN(C)CC3)nc21	5-hydroxytryptamine receptor 6 (Homo sapiens)	7 nM
CC(C)CS(=O)(=O)n1ccc2c(-c3ccc(O)cc3)cc(N3CCN(C)CC3)nc21	5-hydroxytryptamine receptor 6 (Homo sapiens)	22 nM
CN1CCN(c2cc(-c3ccc(C(F)(F)F)cc3)c3ccn(S(C)(=O)=O)c3n2)CC1	5-hydroxytryptamine receptor 6 (Homo sapiens)	54 nM

Next item in the queue.
Form field: Ki recorded for Cc1noc(C)c1-c1cc(N2CCN(C)CC2)nc2c1ccn2S(=O)(=O)CC(C)C with 5-hydroxytryptamine receptor 6 (Homo sapiens) (enter value)
129 nM

====

protocol: Tmax in CD1 mouse plasma at 10 mg/kg, sc by LC-MS/MS analysis
Type: ADME, organism-based
metric-name: Tmax (h)
Value expressed in h; do not type the unit.

Would you mind telling me what Tmax value was observed for CC(C)CS(=O)(=O)n1ccc2c(-c3ccc(C(F)(F)F)cc3)cc(N3CCN(C)CC3)nc21 ?
1

====

protocol: AUClast in CD1 mouse liver at 3 mg/kg, sc after 6 hrs by LC-MS/MS analysis
Type: ADME, organism-based
Design: time < 6 hr, dose 3 mg/kg, route subcutaneous
metric-name: AUC(0-t) at 6 h (µg·h/mL)
Value expressed in µg·h/mL; do not type the unit.

Would you mind telling me what AUC(0-t) at 6 h value was observed for CC(C)CS(=O)(=O)n1ccc2c(-c3ccc(C(F)(F)F)cc3)cc(N3CCN(C)CC3)nc21 ?
0.241

====

protocol: Kinetic solubility in sorensen buffer at pH 7.4 incubated for 1 hr by UV-Visible spectrophotometry
Type: physicochemical
experimental-context: read-out: Kinetic_solubility
Use TRUE when the recorded solubility kinetic at 1 h is no lower than 10 µg/mL; use FALSE when it is lower.

smiles-input	classification
CC(C)CS(=O)(=O)n1ccc2c(-c3ccc(C(F)(F)F)cc3)cc(N3CCN(C)CC3)nc21.Cl	TRUE
CC(C)CS(=O)(=O)n1ccc2c(-c3ccc(C(F)(F)F)cc3)cc(N3CCN(C)CC3)nc21	FALSE
Br.CC(C)CS(=O)(=O)n1ccc2c(-c3ccc(C(F)(F)F)cc3)cc(N3CCN(C)CC3)nc21	TRUE

Threshold query (solubility kinetic at 1 h >= 10 µg/mL) on CC(C)CS(=O)(=O)n1ccc2c(-c3ccc(C(F)(F)F)cc3)cc(N3CCN(C)CC3)nc21.O=C(O)CC(O)(CC(=O)O)C(=O)O
TRUE

Threshold query (solubility kinetic at 1 h >= 10 µg/mL) on CC(C)CS(=O)(=O)n1ccc2c(-c3ccc(C(F)(F)F)cc3)cc(N3CCN(C)CC3)nc21.O=C(O)C(O)C(O)C(=O)O
TRUE

Threshold query (solubility kinetic at 1 h >= 10 µg/mL) on CC(C)CS(=O)(=O)n1ccc2c(-c3ccc(C(F)(F)F)cc3)cc(N3CCN(C)CC3)nc21.O=C(O)/C=C/C(=O)O
TRUE

====

target-or-system: Cytochrome P450 3A4 (Homo sapiens)
Sequence (P08684 whole entry): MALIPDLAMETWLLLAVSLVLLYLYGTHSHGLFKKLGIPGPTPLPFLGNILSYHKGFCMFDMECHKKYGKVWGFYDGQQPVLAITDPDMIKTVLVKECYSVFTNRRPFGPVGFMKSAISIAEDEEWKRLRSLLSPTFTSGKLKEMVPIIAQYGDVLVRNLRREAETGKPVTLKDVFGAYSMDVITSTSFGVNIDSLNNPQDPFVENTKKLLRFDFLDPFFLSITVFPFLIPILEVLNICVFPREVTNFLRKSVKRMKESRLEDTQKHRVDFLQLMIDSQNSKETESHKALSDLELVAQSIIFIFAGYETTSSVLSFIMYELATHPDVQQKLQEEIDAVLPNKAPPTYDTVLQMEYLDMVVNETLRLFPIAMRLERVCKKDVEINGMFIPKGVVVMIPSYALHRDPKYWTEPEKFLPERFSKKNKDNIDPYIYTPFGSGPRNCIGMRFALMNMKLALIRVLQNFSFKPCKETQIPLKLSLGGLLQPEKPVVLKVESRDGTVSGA
protocol: Inhibition of human recombinant CYP3A4 using 7-benzyloxy-trifluoromethylcoumarin as substrate incubated for 30 mins by fluorescence analysis in presence of NADPH
metric-name: IC50 (nM)
Value expressed in nM; do not type the unit.

Would you mind telling me what IC50 value was observed for CC(C)CS(=O)(=O)n1ccc2c(-c3ccc(C(F)(F)F)cc3)cc(N3CCN(C)CC3)nc21 ?
1100

====

protocol: Ratio of drug level in liver to plasma in CD1 mouse at 3 mg/kg, po as single dose by LC-MS/MS analysis
Assay type: ADME, organism-based
metric-name: Kp

Would you mind telling me what Kp value was observed for CC(C)CS(=O)(=O)n1ccc2c(-c3ccc(C(F)(F)F)cc3)cc(N3CCN(C)CC3)nc21 ?
19.5

====

protocol: AUClast in CD1 mouse brain at 10 mg/kg, sc after 6 hrs by LC-MS/MS analysis
Format: ADME, organism-based
Parameters: dose 10 mg/kg, time < 6 hr, route subcutaneous
metric-name: AUC(0-t) at 6 h (ng·h/mL)
Value expressed in ng·h/mL; do not type the unit.

Would you mind telling me what AUC(0-t) at 6 h value was observed for CC(C)CS(=O)(=O)n1ccc2c(-c3ccc(C(F)(F)F)cc3)cc(N3CCN(C)CC3)nc21 ?
161

====

protocol: Cmax in CD1 mouse brain at 10 mg/kg, sc after 6 hrs by LC-MS/MS analysis
Type: ADME, organism-based
Set-up: dose 10 mg/kg, route subcutaneous
metric-name: Cmax (ng/mL)
Value expressed in ng/mL; do not type the unit.

Would you mind telling me what Cmax value was observed for CC(C)CS(=O)(=O)n1ccc2c(-c3ccc(C(F)(F)F)cc3)cc(N3CCN(C)CC3)nc21 ?
36

====

Ki tested on 5-hydroxytryptamine receptor 6 (Homo sapiens): recorded values
Value expressed in nM; do not type the unit.

smiles-input	result-units	Ki
CC(C)CS(=O)(=O)n1ccc2c(-c3cccc(C(F)(F)F)c3)cc(N3CCN(C)CC3)nc21	nM	48
CC(C)CS(=O)(=O)n1ccc2c(-c3cnn(C)c3)cc(N3CCN(C)CC3)nc21	nM	87
CN1CCN(c2cc(-c3ccc(C(F)(F)F)cc3)c3ccn(S(=O)(=O)C4CCCCC4)c3n2)CC1	nM	15
Cc1cc(-c2cc(N3CCN(C)CC3)nc3c2ccn3S(=O)(=O)CC(C)C)c(C)s1	nM	12

Next item in the queue.
Form field: Ki recorded for COCCS(=O)(=O)n1ccc2c(-c3ccc(C(F)(F)F)cc3)cc(N3CCN(C)CC3)nc21 with 5-hydroxytryptamine receptor 6 (Homo sapiens) (enter value)
8

====

Entries and their Ki values follow.
target-or-system: D(2) dopamine receptor (Homo sapiens)
Sequence (P14416 whole entry): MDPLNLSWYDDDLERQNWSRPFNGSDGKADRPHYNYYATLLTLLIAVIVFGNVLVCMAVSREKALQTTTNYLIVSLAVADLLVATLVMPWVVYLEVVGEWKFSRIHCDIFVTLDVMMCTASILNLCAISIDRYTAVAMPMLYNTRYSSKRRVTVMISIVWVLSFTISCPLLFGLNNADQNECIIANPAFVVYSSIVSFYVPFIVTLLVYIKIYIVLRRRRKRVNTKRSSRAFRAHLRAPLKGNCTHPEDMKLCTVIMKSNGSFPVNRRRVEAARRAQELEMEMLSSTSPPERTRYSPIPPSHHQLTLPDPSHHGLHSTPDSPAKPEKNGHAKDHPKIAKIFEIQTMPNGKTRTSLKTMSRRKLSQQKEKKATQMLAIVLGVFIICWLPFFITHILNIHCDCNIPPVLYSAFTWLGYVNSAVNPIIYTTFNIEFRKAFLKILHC
protocol: Displacement of [3H]NMSP from human dopamine D2S receptor expressed in CHO cell membrane incubated for 1 hr by scintillation counting method
Assay type: cell membranes
Value expressed in nM; do not type the unit.

Would you mind telling me what Ki value was observed for CCc1ccc(-c2cc(N3CCN(C)CC3)nc3c2ccn3S(=O)(=O)CC(C)C)cc1 ?
614

Would you mind telling me what Ki value was observed for Cc1cc(-c2cc(N3CCN(C)CC3)nc3c2ccn3S(=O)(=O)CC(C)C)c(C)s1 ?
640

Would you mind telling me what Ki value was observed for CC(C)CS(=O)(=O)n1ccc2c(-c3ccc(C#N)cc3)cc(N3CCN(C)CC3)nc21 ?
205

Would you mind telling me what Ki value was observed for CC(C)CS(=O)(=O)n1ccc2c(-c3ccc4[nH]ccc4c3)cc(N3CCN(C)CC3)nc21 ?
382

Would you mind telling me what Ki value was observed for CC(C)CS(=O)(=O)n1ccc2c(-c3ccc(C(F)(F)F)cc3)cc(N3CCNCC3)nc21 ?
1700

====

protocol: Tmax in CD1 mouse liver at 10 mg/kg, sc by LC-MS/MS analysis
Assay type: ADME, organism-based
metric-name: Tmax
Just so you know, I need the unit written after the number.

Would you mind telling me what Tmax value was observed for CC(C)CS(=O)(=O)n1ccc2c(-c3ccc(C(F)(F)F)cc3)cc(N3CCN(C)CC3)nc21 ?
1 h

====

target-or-system: 5-hydroxytryptamine receptor 6 (Homo sapiens, UniProt P50406)
Sequence (P50406 whole entry): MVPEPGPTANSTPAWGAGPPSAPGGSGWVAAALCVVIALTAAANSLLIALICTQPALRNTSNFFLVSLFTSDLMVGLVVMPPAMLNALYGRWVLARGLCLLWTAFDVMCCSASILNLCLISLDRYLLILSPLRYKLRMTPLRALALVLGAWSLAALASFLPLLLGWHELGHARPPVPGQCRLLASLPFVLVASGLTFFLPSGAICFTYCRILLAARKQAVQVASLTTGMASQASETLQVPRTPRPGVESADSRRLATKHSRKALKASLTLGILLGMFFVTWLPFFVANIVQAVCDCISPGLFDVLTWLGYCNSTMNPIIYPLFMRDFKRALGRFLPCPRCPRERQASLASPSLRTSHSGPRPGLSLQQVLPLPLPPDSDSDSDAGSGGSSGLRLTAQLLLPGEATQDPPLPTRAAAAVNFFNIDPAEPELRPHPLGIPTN
Field 'label' (enum: 1 / 0). Set to 1 when Ki is strictly under 10 nM; else 0.

Worked examples follow.
smiles-input	classification
CC(C)CS(=O)(=O)n1ccc2c(-c3ccccc3)cc(N3CCN(C)CC3)nc21	0
CC(C)CS(=O)(=O)n1ccc2c(-c3ccc(=O)[nH]c3)cc(N3CCN(C)CC3)nc21	0
CC(C)CS(=O)(=O)n1ccc2c(-c3cccnc3)cc(N3CCN(C)CC3)nc21	0
CN1CCN(c2cc(-c3ccc(C(F)(F)F)cc3)c3ccn(S(=O)(=O)C4CCOCC4)c3n2)CC1	1

Now let's try a different one.
is_below(Ki, 10 nM) for CCc1ccc(-c2cc(N3CCN(C)CC3)nc3c2ccn3S(=O)(=O)CC(C)C)cc1 ?
0
